- tested target: Dihydroorotate dehydrogenase (quinone), mitochondrial (Homo sapiens)
- Sequence (Q02127 whole entry): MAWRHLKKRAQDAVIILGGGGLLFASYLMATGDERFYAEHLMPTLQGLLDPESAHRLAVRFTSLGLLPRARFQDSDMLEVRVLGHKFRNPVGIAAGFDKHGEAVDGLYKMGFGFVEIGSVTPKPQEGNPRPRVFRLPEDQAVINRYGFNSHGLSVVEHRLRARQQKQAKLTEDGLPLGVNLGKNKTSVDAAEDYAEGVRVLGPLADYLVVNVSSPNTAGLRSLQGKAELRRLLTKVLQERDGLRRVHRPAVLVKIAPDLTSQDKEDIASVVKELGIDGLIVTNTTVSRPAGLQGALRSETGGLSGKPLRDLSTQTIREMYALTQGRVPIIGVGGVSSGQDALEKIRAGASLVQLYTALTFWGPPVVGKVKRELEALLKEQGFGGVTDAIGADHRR
assay readout: pIC50
Note on pIC50: it is the negative log10 of concentration, concentration in mol/L.

{"compound": "CCC(=O)C(C#N)C(=O)Nc1ccc(-c2ccc3c(c2)OCCO3)c(C(=O)OC)c1 (configuration not stated)", "tested target": "Dihydroorotate dehydrogenase (quinone), mitochondrial (Homo sapiens)", "assay readout": "pIC50", "endpoint value": 7.18}

// next item, pIC50 requested
Sample CCC(=O)C(C#N)C(=O)Nc1ccc(OS(=O)(=O)C(F)(F)F)cc1 (configuration not stated) — what was its pIC50? 6.82
